Please provide measured STK11 functional score for the entries that follow.
B1: library; numbered along this chain (parent)
chain: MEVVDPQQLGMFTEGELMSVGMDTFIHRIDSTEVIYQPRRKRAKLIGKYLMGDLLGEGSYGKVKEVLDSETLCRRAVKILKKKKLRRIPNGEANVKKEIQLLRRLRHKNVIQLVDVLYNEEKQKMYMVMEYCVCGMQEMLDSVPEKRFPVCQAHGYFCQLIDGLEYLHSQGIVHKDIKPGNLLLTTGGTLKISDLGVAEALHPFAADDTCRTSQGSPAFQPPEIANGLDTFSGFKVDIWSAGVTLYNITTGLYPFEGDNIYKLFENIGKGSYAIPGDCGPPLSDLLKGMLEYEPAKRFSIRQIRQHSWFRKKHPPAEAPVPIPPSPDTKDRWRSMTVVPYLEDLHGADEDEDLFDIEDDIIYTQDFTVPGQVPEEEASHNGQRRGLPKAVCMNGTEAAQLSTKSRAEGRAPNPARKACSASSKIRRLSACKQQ

- Variants of: B1
- PROTOCOL_DESCRIPTION: STK11 functional score (HeLa growth suppression), rescaled enrichment; synonymous median = 1, nonsense median = 0 (normalised score)
- EXPERIMENTAL_PARAMETERS: with HeLa; variant type: missense

Look up STK11 functional score: Q399V 0.994

Look up STK11 functional score: L341M 1.63

Look up STK11 functional score: A417E 1.22

Look up STK11 functional score: T336E 1.61

Look up STK11 functional score: G233D 1.56

Look up STK11 functional score: S421N 1.6

Look up STK11 functional score: V4H 1.65

Look up STK11 functional score: Y292W 0.686

Look up STK11 functional score: T402P 1.54

Look up STK11 functional score: R28P 0.47

Look up STK11 functional score: Y156I 1.04

Look up STK11 functional score: D207Y 0.314

Look up STK11 functional score: K191C 0.0918

Look up STK11 functional score: M335F 1.35

Look up STK11 functional score: L263R 1.39

Look up STK11 functional score: Y60S 1.48

Look up STK11 functional score: A76H 0.362

Look up STK11 functional score: S422N 0.705

Look up STK11 functional score: T244G 0.014
